Please respond with reported Regional activity wash-out: % decrease from peak to last scan, Cerebellum for every item in the list.
System: SERT
Test: Baboon PET imaging: brain uptake, kinetic analysis and SERT parameters
Assay type: in vivo
Details: last scan 90 minutes; baboons, mean ± SD of four experiments
Give bare numbers, in %.

Solved entries (count: 4):
CN([11CH3])Cc1ccccc1Sc1ccc(CF)cc1N [[^11C]AFM] | 48
[11CH3]Sc1ccc([C@H]2CN3CCC[C@H]3c3ccccc32)cc1 [[^11C]McN 5652] | 44
CN(C)Cc1ccccc1Sc1ccc(I)cc1N [[^11C]ADAM] | 45
CN(C)Cc1ccccc1Sc1ccc(C#N)cc1N [[^11C]DASB] | 68

Moving on to the next molecule.
Exam item: State the recorded Regional activity wash-out: % decrease from peak to last scan, Cerebellum for this entry: CN(C)Cc1ccccc1Sc1ccc(Br)cc1N [[^11C]DAPA]
Marked response: 29

Numbers sourced from patent US20110097274A1.
